This listing pairs molecules with measured IC50.
# Tested on: Replicase polyprotein 1ab (Severe acute respiratory syndrome coronavirus 2, UniProt P0DTD1)
# Test summary: Functional biochemical assay to identify treatments for viral infectious disease that targets SARS-COV-2 nsp3 macrodomain, whereby the mechanism of action displaces an ADP-Ribose modified peptide from the binding site. Utilizing a time-resolved fluorescence method to measure binding by reading the emitted fluorescence intensity in two wavelengths.
Readout name: IC50

[
  {
    "Chemical string": "O=C(O)C[C@@H](NC(=O)c1cccc2cc[nH]c12)c1ccc(Br)cc1",
    "Result": "> 99.5 µM"
  },
  {
    "Chemical string": "COc1ccc([C@@H](CC(=O)O)NC(=O)c2cc3cccc(NC(=O)NC4CC4)c3[nH]2)cc1",
    "Result": "> 99.5 µM"
  },
  {
    "Chemical string": "C[C@@H](CO)Nc1ncnc2[nH]c(C(=O)OC(C)(C)C)cc12",
    "Result": "> 124 µM"
  },
  {
    "Chemical string": "CC(=O)Nc1ccc(C(=O)Nc2ncnc3[nH]c(C)c(C)c23)cc1Cl",
    "Result": "> 99.5 µM"
  },
  {
    "Chemical string": "c1cc(-c2nnc(Sc3ncnc4[nH]ccc34)[nH]2)ccn1",
    "Result": "> 124 µM"
  }
]
